Listed here: items and their measured LD50.
measurement.protocol: Acute toxicity (single i.p. administration)
assay.context: mouse, in vivo, ip, ddy mice, method of Behrens-Kolber

compound: COc1ccc(C#N)c2c1C(CO)N1C(C#N)C3CC(C(=O)O)C(C1C2)N3C (centres unmarked)
operator.symbol: >
LD50 (mg/kg): 100
--
compound: COc1ccc(I)c2c1C(CO)N1C(C#N)C3CC(C(=O)O)C(C1C2)N3C (centres unmarked)
operator.symbol: =
LD50 (mg/kg): 100
--
compound: COc1ccc(C#N)c2c1C1COC3C4CC(C(=O)O)C(C(C2)N13)N4C (centres unmarked)
operator.symbol: >
LD50 (mg/kg): 50
--
compound: COc1ccc(Cl)c2c1C(CO)N1C(C#N)C3CC(C(=O)O)C(C1C2)N3C (centres unmarked)
operator.symbol: =
LD50 (mg/kg): 50
--
compound: COc1ccc(Br)c2c1C(CO)N1C(C#N)C3CC(C(=O)O)C(C1C2)N3C (centres unmarked)
operator.symbol: =
LD50 (mg/kg): 50
